TEST_DETAILS: NCI Yeast Anticancer Drug Screen. Data for the sgs1 mgt1 strain (AID 161);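 note: 0% = growth of cultures given vehicle only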
EXPERIMENTAL_SETUP: S. cerevisiae sgs1 mgt1 strain, at 50.0 µM, stronger effect = higher value
About 79,000 compounds went through this panel and 15% of them were active in at least one assay; those are over-represented in the sample as a whole. Active and inactive are the calls of the source. Cut-off read from the data, not from the text of the source: active = growth inhibition above about 70%; inactive = the rest.
RECORDED_METRIC: growth inhibition

COMPOUND	RESULT
O=C1C2Cc3ccccc3CN2C(=O)N1CCN1CCOCC1 (stereo unspecified)	-4.15% (inactive)

# lookup: growth inhibition of COc1cc2ccnc(CCCc3nccc4cc(OC)c(OC)cc34)c2cc1OC
-27.4% (inactive)

Entry to check: NC(=O)CNC(=O)C(CO)NC(=O)OCc1ccccc1 (stereo unspecified)
10.7% (inactive)

Entry to check: CCOC1OC(C(O)CO)C(O)C(O)C1O (stereo unspecified)
-1.9% (inactive)

Entry to check: CC1=NN(C(=O)c2ccccc2)C(=O)C1N=Nc1ccc([N+](=O)[O-])cc1 (stereo unspecified)
-2.5% (inactive)

Entry to check: CO/N=C\c1cc[n+](C)cc1
18.9% (inactive)

====

TEST_DETAILS: NCI Yeast Anticancer Drug Screen. Data for the bub3 strain (AID 167)
EXPERIMENTAL_SETUP: S. cerevisiae bub3 mutant strain, at 50.0 µM, stronger effect = higher value
Procedure: Growth inhibition of yeast strains with defined genetic alterations is measured as a screen for potential anti-cancer activity. Selected strains with alterations in DNA damage repair or cell cycle control were exposed to compounds and growth inhibition was measured relative to vehicle treated controls. The strain used in this assay is bub3
This is part of a sample that, as a whole, favours compounds with a hit. Of some 79,000 tested, about 15% had one in any assay.
Below, each of the molecules is paired with its reported growth inhibition value.
Express your answer in %, writing the number without its unit.

# annotated cases, reported growth inhibition shown
MOLECULE	growth inhibition (%)
CCOC(=O)/C(=C\c1ccc(N(C)C)cc1)c1nc2ccccc2[nH]1	40.5
NC1=NN(O)C2=CC(Br)C=CC2=N1 (stereo not given)	43.1
O=C(Cc1ccccc1)N/N=C\Cc1ccccc1	-2.35
Cc1cccc(OCCCCCl)c1	-20.6
CC(=O)C1SCC[S+]1C (stereo not given)	-9.2

# lookup: growth inhibition of NCCNC(c1ccccc1)C(O)c1ccccc1 (stereo not given)
-41.2

Entry to check: Nc1ccc(P(=O)(O)c2ccc(N)cc2Br)c(Br)c1
-4

Entry to check: CC(=O)Oc1ccc(CC(C)C(C)Cc2ccc(OC(C)=O)c(OC(C)=O)c2)cc1OC(C)=O (stereo not given)
0.5

Entry to check: c1csc(C2N3CCN(CC3)C(c3cccs3)N3CCN2CC3)c1 (stereo not given)
-5.25

Entry to check: C[N+]1(CCC(=O)c2ccco2)CC2CCC(CC2)C1 (stereo not given)
-68.7

Entry to check: CC1=C(C(=O)Nc2cccc3c2C(=O)NC3=O)CC(C(=O)Nc2cccc3c2C(=O)NC3=O)=C(C)N1
-10.9

====

TEST_DETAILS: NCI Yeast Anticancer Drug Screen. Data for the mec2-1 strain (AID 157)
EXPERIMENTAL_SETUP: S. cerevisiae mec2-1 strain, at 50.0 µM, stronger effect = higher value
The panel holds about 79,000 compounds, 15% with a hit somewhere; the sample as a whole holds those more often.
RECORDED_METRIC: growth inhibition (%)
Express your answer in %, writing the number without its unit.

# lookup: growth inhibition of Cc1cc(C)n(-c2nnc(-n3nc(C)cc3C)c3ccccc23)n1
-1.75

Entry to check: CC(C)CCCC(C)C1CCC2C3CC=C4CC(OCCC(C)C)CCC4(C)C3CCC12C (configuration not stated)
66.7

Entry to check: CC(O)C(C)C(N)C(=O)O (configuration not stated)
2

Entry to check: COC(=O)C1(F)C(=O)NC(=O)NC1OC (configuration not stated)
16.6

Entry to check: O=P1(c2ccccc2)OCC2=C(c3ccccc3)CC2=C1c1ccccc1 (configuration not stated)
12.2

Entry to check: CCCC1CCCCC1O (configuration not stated)
-38.8

Entry to check: CC(=O)Oc1c(C)cc2c(c1C)C(C)(C)CN2C(=O)C(C)(C)C
-20.2

Entry to check: N#CCCN(CCC#N)C(Cc1cn(CCC#N)cn1)C(=O)O (configuration not stated)
6.35

Entry to check: O=C(O)CNC(=O)C(=O)c1c[nH]c2ccc([N+](=O)[O-])cc12
-27.8

Entry to check: NC(CC(=O)N/C=N/C(=O)O)C(=O)O (configuration not stated)
5.45

Entry to check: CSc1ccccc1N.[Cl][Cu][Cl]
19.4

Entry to check: CCOc1ccc(/C=N/NC(=O)CCCCCCCCC(=O)N/N=C/c2ccc(OCC)c(OC)c2)cc1OC
-5.1

Attribution: PubChem BioAssay (NCI)
